System: FLX1
procedure_text: cell viability z-score within plate (CellTiter-Glo), mean of 3 biological replicates; higher = higher viability relative to plate (less growth inhibition)
details: 2 µM; time (hr): 120

{"sample_smiles": "CCOc1cc(N2CCC(O)CC2)ccc1Nc1ncc2c(n1)N(C)c1ccccc1C(=O)N2C", "cell viability z-score within plate": 0.413}
{"sample_smiles": "O=C1NCCc2[nH]c(-c3ccncc3)cc21", "cell viability z-score within plate": 0.309}
{"sample_smiles": "COc1cccc2cc(-c3nc([C@H]4CC[C@H](C(=O)O)CC4)n4ncnc(N)c34)[nH]c12", "cell viability z-score within plate": 0.362}
{"sample_smiles": "N#C/C(=C(/N)Sc1ccc(N)cc1)c1ccccc1C(F)(F)F", "cell viability z-score within plate": -0.253}
{"sample_smiles": "CO[C@@H](C(=O)N1Cc2[nH]nc(NC(=O)c3ccc(N4CCN(C)CC4)cc3)c2C1)c1ccccc1", "cell viability z-score within plate": 0.348}

----------
System: FLX1
procedure_text: cell viability z-score within plate (CellTiter-Glo), mean of 3 biological replicates; higher = higher viability relative to plate (less growth inhibition)
details: 2 µM; time (hr): 120
Structures can show the parent of a compound that is named as a salt.
Below, each entry is listed with its recorded cell viability z-score within plate.

{"compound": "CN1CCN(c2ccc(Nc3cc(-c4cccc(-n5ccc6cc(C7CC7)cc(F)c6c5=O)c4CO)cn(C)c3=O)nc2)CC1", "cell viability z-score within plate": -0.244}
{"compound": "CCCCCCCCc1ccc(CCC(N)(CO)CO)cc1 [Fingolimod (FTY720) HCl]", "cell viability z-score within plate": 0.096}
{"compound": "Cc1c(NC(=O)c2ccc(C(C)(C)C)cc2)cccc1-c1cn(C)c(=O)c(Nc2ccc(C(=O)N3CCOCC3)cc2)n1", "cell viability z-score within plate": 0.367}
{"compound": "CS(=O)(=O)N1CCc2c(-c3cnc(N)nc3)nc(N3CCOCC3)nc21", "cell viability z-score within plate": 0.617}
{"compound": "Cc1csc(-c2nnc(Nc3ccc(Oc4ncccc4-c4ccnc(N)n4)cc3)c3ccccc23)c1", "cell viability z-score within plate": -0.507}
{"compound": "COC(=O)c1ccc2c(c1)NC(=O)/C2=C(\\Nc1ccc(N(C)C(=O)CN2CCN(C)CC2)cc1)c1ccccc1", "cell viability z-score within plate": 0.242}
{"compound": "Cc1cc(NC(=O)c2cccc(NC(=O)/C=C/CN(C)C)c2)ccc1Nc1nccc(-c2cccnc2)n1", "cell viability z-score within plate": 0.657}
{"compound": "Cc1cc(F)c(Nc2ncnc3cc(OCc4ccccc4)ccc23)cc1O", "cell viability z-score within plate": -0.328}

----------
Below, each entry is listed with its recorded difference in log2 fold change of viability.
Tested on: FLX1 + dox-induced PRKAR1A G325D
procedure_text: difference in log2 fold change of viability vs plate median (dox-induced PRKAR1A G325D minus uninduced); higher = compound less effective when PKA is inhibited
details: concentration: not stated (2 or 5 uM); 5 days
quantity: difference in log2 fold change of viability

{"sample_smiles": "O=C(NC1CCNCC1)c1n[nH]cc1NC(=O)c1c(Cl)cccc1Cl", "tgt": "FLX1 + dox-induced PRKAR1A G325D", "value": 0.272}
{"sample_smiles": "COc1ccc2c(Oc3ccc(NC(=O)c4c(C)n(CC(C)(C)O)n(-c5ccccc5)c4=O)nc3)ccnc2c1", "tgt": "FLX1 + dox-induced PRKAR1A G325D", "value": 0.00712}
{"sample_smiles": "CCCS(=O)(=O)Nc1ccc(F)c(C(=O)c2c[nH]c3ncc(Cl)cc23)c1F", "tgt": "FLX1 + dox-induced PRKAR1A G325D", "value": 0.333}
{"sample_smiles": "Cc1c(CN2CCN(C(=O)[C@H](C)O)CC2)sc2c(N3CCOCC3)nc(-c3cnc(N)nc3)nc12", "tgt": "FLX1 + dox-induced PRKAR1A G325D", "value": 0.628}
